Just for reference, paper PMC10985088 is where these values come from.

Listed here: items and their measured pIC50.
Tested on: MIA PaCa-2 cells
TEST_CONTEXT: read-out: IC50 MIA PaCa-2; human pancreatic carcinoma cell, 72 h, mean ± SE (n = 3)
pIC50: −log10 of the molar value.

| COMPOUND | pIC50 |
| --- | --- |
| CC(C)[C@H]1C(=O)OC[C@@H](NC(=O)c2cc3ccccc3[nH]2)C(=O)N[C@@H](C)C(=O)N(C)[C@H]2CSC[C@@H](C(=O)N1C)N(C)C(=O)[C@H](C)NC(=O)[C@H](NC(=O)c1cc3ccccc3[nH]1)COC(=O)[C@H](C(C)C)N(C)C2=O [Compound 8] | < 5.00 |

query: What pIC50 value was documented for this compound, CC(C)[C@H]1C(=O)OC[C@@H](NC(=O)c2cccc3cc[nH]c23)C(=O)N[C@@H](C)C(=O)N(C)[C@H]2CSC[C@@H](C(=O)N1C)N(C)C(=O)[C@H](C)NC(=O)[C@H](NC(=O)c1cccc3cc[nH]c13)COC(=O)[C@H](C(C)C)N(C)C2=O [Compound 12] ?
result: < 5.00

====

ASSAY_OVERVIEW: Hepatic microsomal stability assay, human
Assay type: in vitro ADME
TEST_CONTEXT: human liver microsomes, pH 7.4, 1 μM, 0.2 mg/mL microsomes, 37 °C, 30 min, NADPH(+), read-out: Metabolic stability (CLint) Human NADPH(+)
ASSAY_METRIC: CLint scaled at 1 μM (mL/min/kg)
Please give a number only; it is taken to be in mL/min/kg.

query: What CLint scaled at 1 μM value was documented for this molecule, Cc1ncc2n1-c1ccc(Cl)cc1C(c1ccccc1F)=NC2 [Midazolam] ?
result: 435

====

ASSAY_OVERVIEW: Hepatic microsomal stability assay, mouse
Assay type: in vitro ADME
TEST_CONTEXT: mouse liver microsomes, pH 7.4, 1 μM, 0.2 mg/mL microsomes, 37 °C, 30 min, NADPH(+), read-out: Metabolic stability (CLint) Mouse NADPH(+)
ASSAY_METRIC: CLint scaled at 1 μM (L/h/kg)
Please give a number only; it is taken to be in L/h/kg.

query: What CLint scaled at 1 μM value was documented for this molecule, `Cc1ncc2n1-c1ccc(Cl)cc1C(c1ccccc1F)=NC2` ?
result: 240

====

ASSAY_OVERVIEW: Hepatic microsomal stability assay, human
Format: in vitro ADME
TEST_CONTEXT: human liver microsomes, pH 7.4, 1 μM, 0.2 mg/mL microsomes, 37 °C, 30 min, NADPH(−), read-out: Metabolic stability (CLint) Human NADPH(−)
ASSAY_METRIC: CLint scaled at 1 μM

query: What CLint scaled at 1 μM value was documented for this compound, `Cc1ncc2n1-c1ccc(Cl)cc1C(c1ccccc1F)=NC2` ?
result: < 22 mL/min/kg

====

Listed here: items and their measured CLint scaled.
ASSAY_OVERVIEW: Hepatic microsomal stability assay, human
Type: in vitro ADME
TEST_CONTEXT: microsomes, 1 μM, 0.2 mg/mL microsomes, 37 °C, 30 min, NADPH(−), read-out: Metabolic stability (CLint) Human NADPH(−)

query: What CLint scaled value was documented for this compound, `CS[C@H]1SC[C@H]2C(=O)N(C)[C@@H](C(C)C)C(=O)OC[C@@H](NC(=O)c3cnc4ccccc4n3)C(=O)N[C@@H](C)C(=O)N(C)[C@@H]1C(=O)N(C)[C@@H](C(C)C)C(=O)OC[C@@H](NC(=O)c1cnc3ccccc3n1)C(=O)N[C@@H](C)C(=O)N2C` ?
result: < 22 mL/min/kg

query: Same read-out for `CC(C)[C@H]1C(=O)OC[C@@H](NC(=O)c2nc3ccccc3cc2O)C(=O)N[C@@H](C)C(=O)N(C)[C@H]2CSC[C@@H](C(=O)N1C)N(C)C(=O)[C@H](C)NC(=O)[C@H](NC(=O)c1nc3ccccc3cc1O)COC(=O)[C@H](C(C)C)N(C)C2=O` ?
result: 45.1 mL/min/kg

====

Test system: MIA PaCa-2 cells
TEST_CONTEXT: read-out: IC50 MIA PaCa-2; human pancreatic carcinoma cell, 72 h, mean ± SE (n = 3)
ASSAY_METRIC: pIC50
Here pIC50 is given on a logarithmic scale as minus log10 of the concentration in mol/L.

query: What pIC50 value was documented for this compound, `CC(C)[C@H]1C(=O)OC[C@@H](NC(=O)c2cnc3ccccc3n2)C(=O)N[C@@H](C)C(=O)N(C)[C@H]2CSC[C@@H](C(=O)N1C)N(C)C(=O)[C@H](C)NC(=O)[C@H](NC(=O)c1cnc3ccccc3n1)COC(=O)[C@H](C(C)C)N(C)C2=O` ?
result: 8.09

query: Same read-out for `CC(C)[C@H]1C(=O)OC[C@@H](NC(=O)c2nc3ccccc3cc2O)C(=O)N[C@@H](C)C(=O)N(C)[C@H]2CSC[C@@H](C(=O)N1C)N(C)C(=O)[C@H](C)NC(=O)[C@H](NC(=O)c1nc3ccccc3cc1O)COC(=O)[C@H](C(C)C)N(C)C2=O` ?
result: 8.85

====

System: MIA PaCa-2 cells
TEST_CONTEXT: read-out: IC50 MIA PaCa-2; human pancreatic carcinoma cell, 72 h, mean ± SE (n = 3)
pIC50: −log10 of the molar value.
Listed here: items and their measured pIC50.

Solved entries (count: 3):
| MOLECULE_SMILES | REPORTED_MEASUREMENT |
| --- | --- |
| CC(C)[C@H]1C(=O)OC[C@@H](NC(=O)c2ccc3cc[nH]c3c2)C(=O)N[C@@H](C)C(=O)N(C)[C@H]2CSC[C@@H](C(=O)N1C)N(C)C(=O)[C@H](C)NC(=O)[C@H](NC(=O)c1ccc3cc[nH]c3c1)COC(=O)[C@H](C(C)C)N(C)C2=O | < 5.00 |
| CC(C)[C@H]1C(=O)OC[C@@H](NC(=O)c2cc3ccccc3o2)C(=O)N[C@@H](C)C(=O)N(C)[C@H]2CSC[C@@H](C(=O)N1C)N(C)C(=O)[C@H](C)NC(=O)[C@H](NC(=O)c1cc3ccccc3o1)COC(=O)[C@H](C(C)C)N(C)C2=O | < 5.00 |
| CC(C)[C@H]1C(=O)OC[C@@H](NC(=O)c2cc3ccccc3s2)C(=O)N[C@@H](C)C(=O)N(C)[C@H]2CSC[C@@H](C(=O)N1C)N(C)C(=O)[C@H](C)NC(=O)[C@H](NC(=O)c1cc3ccccc3s1)COC(=O)[C@H](C(C)C)N(C)C2=O | < 5.00 |

query: What pIC50 value was documented for this molecule, `CC(C)[C@H]1C(=O)OC[C@@H](NC(=O)c2ccc3ccccc3c2)C(=O)N[C@@H](C)C(=O)N(C)[C@H]2CSC[C@@H](C(=O)N1C)N(C)C(=O)[C@H](C)NC(=O)[C@H](NC(=O)c1ccc3ccccc3c1)COC(=O)[C@H](C(C)C)N(C)C2=O` ?
result: < 5.00

query: Same read-out for `CC(C)[C@H]1C(=O)OC[C@@H](NC(=O)c2ccc3ncccc3c2)C(=O)N[C@@H](C)C(=O)N(C)[C@H]2CSC[C@@H](C(=O)N1C)N(C)C(=O)[C@H](C)NC(=O)[C@H](NC(=O)c1ccc3ncccc3c1)COC(=O)[C@H](C(C)C)N(C)C2=O` ?
result: 6.49

query: Same read-out for `CC(C)[C@H]1C(=O)OC[C@@H](NC(=O)c2c[nH]c3ccccc23)C(=O)N[C@@H](C)C(=O)N(C)[C@H]2CSC[C@@H](C(=O)N1C)N(C)C(=O)[C@H](C)NC(=O)[C@H](NC(=O)c1c[nH]c3ccccc13)COC(=O)[C@H](C(C)C)N(C)C2=O` ?
result: < 5.00

query: Same read-out for `CC(C)[C@H]1C(=O)OC[C@@H](NC(=O)c2ccc3ocnc3c2)C(=O)N[C@@H](C)C(=O)N(C)[C@H]2CSC[C@@H](C(=O)N1C)N(C)C(=O)[C@H](C)NC(=O)[C@H](NC(=O)c1ccc3ocnc3c1)COC(=O)[C@H](C(C)C)N(C)C2=O` ?
result: < 5.00

query: Same read-out for `CC(C)[C@H]1C(=O)OC[C@@H](NC(=O)c2ccc3ncoc3c2)C(=O)N[C@@H](C)C(=O)N(C)[C@H]2CSC[C@@H](C(=O)N1C)N(C)C(=O)[C@H](C)NC(=O)[C@H](NC(=O)c1ccc3ncoc3c1)COC(=O)[C@H](C(C)C)N(C)C2=O` ?
result: < 5.00

query: Same read-out for `CC(C)[C@H]1C(=O)OC[C@@H](NC(=O)c2ccc3ccccc3n2)C(=O)N[C@@H](C)C(=O)N(C)[C@H]2CSC[C@@H](C(=O)N1C)N(C)C(=O)[C@H](C)NC(=O)[C@H](NC(=O)c1ccc3ccccc3n1)COC(=O)[C@H](C(C)C)N(C)C2=O` ?
result: 8.24

====

System: SW620 cells
ASSAY_OVERVIEW: WST-8 cytotoxicity assay, SW620

| MOLECULE_SMILES | cytotoxicity to SW620 cells (in words) |
| --- | --- |
| CC(C)[C@H]1C(=O)OC[C@@H](NC(=O)c2cnccn2)C(=O)N[C@@H](C)C(=O)N(C)[C@H]2CSC[C@@H](C(=O)N1C)N(C)C(=O)[C@H](C)NC(=O)[C@H](NC(=O)c1cnccn1)COC(=O)[C@H](C(C)C)N(C)C2=O | lost their cytotoxicity |
| CC(C)[C@H]1C(=O)OC[C@@H](NC(=O)c2ccc(C(=O)c3ccccc3)cc2)C(=O)N[C@@H](C)C(=O)N(C)[C@H]2CSC[C@@H](C(=O)N1C)N(C)C(=O)[C@H](C)NC(=O)[C@H](NC(=O)c1ccc(C(=O)c3ccccc3)cc1)COC(=O)[C@H](C(C)C)N(C)C2=O | lost their cytotoxicity |
| CC(C)[C@H]1C(=O)OC[C@@H](NC(=O)c2ccc3c(c2)C(=O)c2ccccc2C3=O)C(=O)N[C@@H](C)C(=O)N(C)[C@H]2CSC[C@@H](C(=O)N1C)N(C)C(=O)[C@H](C)NC(=O)[C@H](NC(=O)c1ccc3c(c1)C(=O)c1ccccc1C3=O)COC(=O)[C@H](C(C)C)N(C)C2=O | lost their cytotoxicity |
